Tested on: human A549 cells
Method Notes: Inhibition test of PGE2 production using human A549 cells
Type: cell-based
Cond: IL-1β stimulated A549 cells, 24 h, PGE2 by HTRF, read-out: A549 cell inhibition of PGE2 production IC50
Structures can show the parent of a compound that is named as a salt.
Readout: IC50 (nM)

[
  {
    "Compound": "COc1ccc(-n2ncc3c(NC(=O)c4cc(CNC(=O)C5(C(F)(F)F)CC5)ccc4Cl)cccc32)cn1",
    "Result": 3
  },
  {
    "Compound": "Cc1ccc(-n2ncc3c(NC(=O)c4cc(CNC(=O)C(C)(C)C)ccc4Cl)cccc32)cc1Cl",
    "Result": 1.8
  },
  {
    "Compound": "CCOCc1ccc(-n2ncc3c(NC(=O)c4cc(CNC(=O)C(C)(C)C)ccc4Cl)cccc32)cn1 [Example 86, hydrochloride]",
    "Result": 101
  }
]

[a] Cc1c(Cl)cccc1-n1ncc2c(NC(=O)c3cc(CNC(=O)C4CC4)ccc3Cl)cccc21
[b] O=C(CC1CCCC1)NCc1ccc(Cl)c(C(=O)Nc2cccc3c2cnn3-c2ccc(C(F)(F)F)cc2)c1
[c] Cc1ncc(-n2ncc3c(NC(=O)c4cc(CNC(=O)C(C)(C)C)ccc4Cl)cccc32)cn1
[d] O=C(Nc1cccc2c1cnn2-c1ccc(OC(F)(F)F)cc1)c1cc(CNC(=O)C2CCCC2)ccc1Cl
Returns the items ordered by IC50, from maximum to minimum. // rank by listing labels in the order requested c, b, a, d
(c: 20.9 nM, b: 14.3 nM, a: 7.8 nM, d: 1.2 nM)
